Measured values drawn from the supplement of paper PMC10290057 for this set.

I'd appreciate it if you could supply efficacy values for the items below.
Test system: HCT116;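 also: Luminescence-based viability readout, five doses per compound, normalized against on-plate DMSO and empty-well controls, followed by dose-response curve fitting for every drug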
Test Summary: efficacy (fitted maximal change in viability relative to DMSO control); higher = less cytotoxic (negative = loss of viability)
Details: 48 h
Kindly provide the numeric value in % only, without the unit symbol.

State its efficacy for this compound: CC/C(=C(/c1ccc(O)cc1)c1ccc(OCCNC)cc1)c1ccccc1 [Endoxifen]
-71.8

State its efficacy for this compound: CC[C@@H]1C(=O)N(C)c2cnc(Nc3ccc(C(=O)NC4CCN(C)CC4)cc3OC)nc2N1C1CCCC1
-71.6

State its efficacy for this compound: C[C@H](NC1=C2N=C[NH]C2=NC=N1)C/3=C/C4=C(C(=CC=C4)Cl)C(=O)N3C5=CC=CC=C5
-72
